Exercise: state measured IC50 for each of the molecules provided.
tested on: KRAS-mutant PDC tumor spheroid with HUVEC/MSC, viability; test: Anticancer human tumor 327498-153-R-J2-PDC patient-derived uterine carcinosarcoma cell line growth inhibition [KRAS2]; details: curve of first compound; second compound 3.16 µM;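 further: spheroids exposed to agents for seven days before reading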

Recorded IC50, per entry:
| molecule | IC50 |
| --- | --- |
| CC(C)n1nc(-c2ccc3oc(N)nc3c2)c2c(N)ncnc21 + CC1OCC2(CCN(c3cnc(Sc4ccnc(N)c4Cl)c(N)n3)CC2)C1N | < 0.316 nM |
| CC(=O)Nc1cccc(-n2c(=O)n(C3CC3)c(=O)c3c(Nc4ccc(I)cc4F)n(C)c(=O)c(C)c32)c1 + COc1cc2nc(C)nc(NC(C)c3cc(N)cc(C(F)(F)F)c3)c2cc1OC1CCOC1 | 1.05 nM |

We next turn to a different molecule, shown below.
Request: Report IC50 for COC(=O)c1ccc2c(C(=Nc3ccc(N(C)C(=O)CN4CCN(C)CC4)cc3)c3ccccc3)c(O)[nH]c2c1 + C=CC(=O)N1CCN(c2nc(OCC3CCCN3C)nc3c2CCN(c2cccc4cccc(C)c24)C3)CC1CC#N please.
Result: < 31.6 nM
